System: HMLE-ZEB1 cells (CDH1prom-luc reporter, Dox-induced ZEB1 driven EMT)
assay_text: Dual-Glo luciferase CDH1prom-luc reporter screen of LOPAC and bioactive lipid library
Assay type: cell-based
measurement_setup: ratio Firefly (CDH1prom-luc) / Renilla luciferase, normalized to DMSO = 1; primary screen
From the text: FIG. 1: Design of a cell-based reporter assay. Doxycycline (Dox)-induced ZEB1 driven EMT (HMLE-ZEB1 cells) was used to conduct high-throughput screen for identifying inhibitors of epithelial-mesenchymal transition. A) Dual-Glo luciferase assay to test gene promoters that include CD44, CD166, CDH1 and SERPINE1 in Dox-induced HMLE-ZEB1 cells. Data are represented as ratio of mean Firefly luciferase (FF) and Renilla luciferase (Ren) readings; n=3. […]
Counter-ions that a name gives are not always drawn.
Listed next: entries and their corresponding DMSO normalized FF/RL(DMSO = 1).
Note: the reply should be a number with no unit written.

Take a look at these entries with their results.
>  <compound>
CCCCCCCCCCCCCCCCCCOC[C@H](COP(=O)([O-])OCC[N+](C)(C)C)OC

>  <measurement_target>
HMLE-ZEB1 cells (CDH1prom-luc reporter, Dox-induced ZEB1 driven EMT)

>  <DMSO normalized FF/RL(DMSO = 1)>
0.35

$$$$
>  <compound>
Nc1ccc(-c2ccc3ccccc3n2)cc1 [BF-170 hydrochloride]

>  <measurement_target>
HMLE-ZEB1 cells (CDH1prom-luc reporter, Dox-induced ZEB1 driven EMT)

>  <DMSO normalized FF/RL(DMSO = 1)>
0.5174

$$$$
>  <compound>
Cc1cc(O)c2c(c1)C(=O)c1cc(O)cc(O)c1C2=O

>  <measurement_target>
HMLE-ZEB1 cells (CDH1prom-luc reporter, Dox-induced ZEB1 driven EMT)

>  <DMSO normalized FF/RL(DMSO = 1)>
0.6268

$$$$
>  <compound>
Cc1ccc(C(=O)Cn2c3c(sc2=N)CCCC3)cc1

>  <measurement_target>
HMLE-ZEB1 cells (CDH1prom-luc reporter, Dox-induced ZEB1 driven EMT)

>  <DMSO normalized FF/RL(DMSO = 1)>
0.348

$$$$
>  <compound>
O=c1cc(-c2ccc(O)cc2)oc2cc(O)cc(O)c12

>  <measurement_target>
HMLE-ZEB1 cells (CDH1prom-luc reporter, Dox-induced ZEB1 driven EMT)

>  <DMSO normalized FF/RL(DMSO = 1)>
0.5787

$$$$

INPUT: For the record Oc1cc(O)cc(/C=C/c2ccc(O)c(O)c2)c1 , what value of DMSO normalized FF/RL(DMSO = 1) is listed for HMLE-ZEB1 cells (CDH1prom-luc reporter, Dox-induced ZEB1 driven EMT)?
OUTPUT: 0.6253

INPUT: Now consider COc1cccc(-c2cc(=O)c3ccccc3o2)c1N .
OUTPUT: 0.4592

====

Listed next: entries and their corresponding DMSO normalized FF/RL(DMSO = 1).
System: HMLE-ZEB1 cells (CDH1prom-luc reporter, Dox-induced ZEB1 driven EMT)
assay_text: Dual-Glo luciferase CDH1prom-luc reporter screen of LOPAC and bioactive lipid library
Assay type: cell-based
measurement_setup: ratio Firefly (CDH1prom-luc) / Renilla luciferase, normalized to DMSO = 1; primary screen

>  <compound>
O=c1c2ccccc2nc2n1CCc1c-2[nH]c2ccccc12 [Rutaecarpine]

>  <observed>
0.5597

$$$$
>  <compound>
CC(C)(C)OC(=O)Nc1ccc(-c2cc(C(=O)NCCCCCCC(=O)NO)no2)cc1 [CAY 10603]

>  <observed>
0.33

$$$$
>  <compound>
O=C1Cc2c([nH]c3ccc(Br)cc23)-c2ccccc2N1 [Kenpaullone]

>  <observed>
0.8715

$$$$
>  <compound>
COc1ccc(/C=C/C(=O)Nc2ccccc2C(=O)O)cc1OC [Tranilast]

>  <observed>
0.4527

$$$$

Turning to the following compound.
INPUT: For the record CCc1ccc(/C=C2/SC(=S)NC2=O)cc1 [10058-F4] , what value of DMSO normalized FF/RL(DMSO = 1) is listed for HMLE-ZEB1 cells (CDH1prom-luc reporter, Dox-induced ZEB1 driven EMT)?
OUTPUT: 0.5631
